The origin of these recorded values is patent US20060052294A1.

Listed below: ED50 [nM] (N-acetyl-beta-D-glucosaminidase release from C5aR-RBL cells) values for each entry.
# TEST_SYSTEM: T1, human C5a receptor (human, UniProt P21730 1-350)
# T1 sequence (looked up): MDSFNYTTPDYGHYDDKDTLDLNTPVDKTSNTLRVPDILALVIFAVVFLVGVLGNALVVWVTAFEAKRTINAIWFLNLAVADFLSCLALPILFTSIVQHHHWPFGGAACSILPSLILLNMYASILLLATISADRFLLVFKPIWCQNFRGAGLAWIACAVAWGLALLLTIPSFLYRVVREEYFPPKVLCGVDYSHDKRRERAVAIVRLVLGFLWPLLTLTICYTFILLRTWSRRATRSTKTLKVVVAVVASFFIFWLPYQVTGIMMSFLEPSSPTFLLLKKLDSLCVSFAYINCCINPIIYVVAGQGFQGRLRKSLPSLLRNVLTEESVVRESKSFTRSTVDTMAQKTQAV
# ASSAY_DETAILS: cell-based or functional assay

See these solved cases before continuing.
C5a-(1-66,Cys27Ala)-A8B-Lys69-Ala70 (ligand) TLQKKIEEIAAKYKHSVVKKCCYDGAAVNNDETCEQRAARISLGPRCIKAFTECCVVASQLRANISFKKALLR = > 4000 nM
C5a-(1-66,Cys27Ala)-A8B (ligand, Mutein of human C5a, expressed in the E. coli periplasm without a fusion partner and purified on mAb 561; also called C5aRA A8B; mutein A8B) TLQKKIEEIAAKYKHSVVKKCCYDGAAVNNDETCEQRAARISLGPRCIKAFTECCVVASQLRANISFKRSLLR = > 4000 nM
recombinant human C5a (ligand, 74-residue recombinant human C5a; also called rhC5a; rC5a) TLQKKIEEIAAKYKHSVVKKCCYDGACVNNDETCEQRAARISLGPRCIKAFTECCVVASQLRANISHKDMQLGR = 3.5 nM
C5a-(1-66,Cys27Ala)-A8B-Leu70 (ligand, also called 67-FKRLLLR-73) TLQKKIEEIAAKYKHSVVKKCCYDGAAVNNDETCEQRAARISLGPRCIKAFTECCVVASQLRANISFKRLLLR = > 4000 nM

Okay, now this binder:
Query: ED50 [nM] (N-acetyl-beta-D-glucosaminidase release from C5aR-RBL cells); subject: C5a-(1-66,Cys27Ala)-A8B-Leu70-Tyr73 (ligand, also called 67-FKRLLLY-73) TLQKKIEEIAAKYKHSVVKKCCYDGAAVNNDETCEQRAARISLGPRCIKAFTECCVVASQLRANISFKRLLLY
> 4000 nM
